Reported inhibition values follow for various compounds
experimental-system: Lethal factor (Bacillus anthracis) (UniProt P15917)
Sequence (P15917 whole entry, looked up): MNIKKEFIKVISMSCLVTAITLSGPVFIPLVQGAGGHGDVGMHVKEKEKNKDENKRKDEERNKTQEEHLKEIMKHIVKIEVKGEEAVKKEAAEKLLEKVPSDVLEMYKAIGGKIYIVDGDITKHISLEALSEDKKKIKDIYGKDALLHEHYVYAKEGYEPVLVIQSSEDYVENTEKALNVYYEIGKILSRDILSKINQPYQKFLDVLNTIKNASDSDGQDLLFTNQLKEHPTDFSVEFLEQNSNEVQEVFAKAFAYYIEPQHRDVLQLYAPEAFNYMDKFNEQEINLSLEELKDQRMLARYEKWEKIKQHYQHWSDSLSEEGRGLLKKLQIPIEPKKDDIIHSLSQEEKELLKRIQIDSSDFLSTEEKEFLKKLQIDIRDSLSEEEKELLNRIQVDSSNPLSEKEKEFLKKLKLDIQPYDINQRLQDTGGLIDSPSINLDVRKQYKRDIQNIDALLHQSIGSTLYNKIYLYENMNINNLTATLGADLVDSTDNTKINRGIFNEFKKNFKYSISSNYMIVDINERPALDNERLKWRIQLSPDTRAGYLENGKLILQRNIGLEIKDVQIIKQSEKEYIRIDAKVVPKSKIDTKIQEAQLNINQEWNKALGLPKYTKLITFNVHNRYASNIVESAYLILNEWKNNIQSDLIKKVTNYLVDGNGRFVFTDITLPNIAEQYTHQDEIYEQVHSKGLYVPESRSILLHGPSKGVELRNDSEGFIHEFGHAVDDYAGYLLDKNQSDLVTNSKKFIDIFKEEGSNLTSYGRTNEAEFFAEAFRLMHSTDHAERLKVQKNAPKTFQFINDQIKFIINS
assay-text: Lethal factor protease inhibitors, Bacillus anthracis, multiplex microsphere cleavage assay, validation set (AID 588461)
run-parameters: flow cytometry, at 10 µM, stronger effect = higher value
Where a SMILES comes first, the peptide text is derived from it. The star is where a group is joined. Boc = CC(C)(C)OC(=O)*
Value expressed in %; do not type the unit.

Field: example entries. Status: answers known.
compound	unit-name	inhibition
FC(F)(F)c1ccc(-c2noc(CN3CCCN(C4CCCCC4)CC3)n2)cc1	%	-7
C=C(C)COc1ccc(-c2n[nH]c(C)c2-c2ccc(OC)cc2)c(O)c1	%	5.2
O=S(=O)(NCCCCCNS(=O)(=O)c1ccccc1)c1ccccc1	%	-0.7
OCCN(CCO)c1nc(N2CCCCC2)c2nc(N(CCO)CCO)nc(N3CCCCC3)c2n1	%	8.5
CCOc1ccc(C2C(C#N)=C(N)Oc3c2c(=O)oc2ccccc32)cc1 (stereo not drawn)	%	0.5
Cc1ccc(O)c(CCc2ccccc2)n1	%	-5.5
Cc1ccc2c(c1)C(CCN)C(=O)N2Cc1ccccc1 (stereo not drawn)	%	6.7
CC(C)CCC1(CN2CCCC2=O)C(=O)NC(=O)NC1=O	%	-0.7
N=c1nc(N2CCCCC2)cc(N)n1O	%	0.9
CCOc1ccc(CC2CCC(=O)NC2=O)cc1 (stereo not drawn)	%	-1.5

Identify measured inhibition associated with CCCC(=O)O[C@]1(C(=O)CCl)[C@@H](C)C[C@H]2[C@@H]3CCC4=CC(=O)C=C[C@]4(C)[C@@]3(F)C(=O)C[C@@]21C
1

Identify measured inhibition associated with CC(C)(C)OC(=O)N1CCCC1C(=O)NC(Cc1ccccc1)C(=O)O (stereo not drawn) (Boc-Pro-Phe-OH; configuration not given here)
-0.3

----------
Reported inhibition values follow for various compounds
experimental-system: Lethal factor (Bacillus anthracis)
assay-text: Lethal factor protease inhibitors, Bacillus anthracis, multiplex microsphere cleavage assay, validation set (AID 588461)
run-parameters: flow cytometry, at 10 µM, stronger effect = higher value
Value expressed in %; do not type the unit.

compound	unit-name	inhibition
O=C(O)c1ccc(-c2ccc(O)c(F)c2)cc1	%	0.4
O=C(Cc1ccccc1)NNC(=O)Cc1ccccc1	%	-1.2
CC(=O)Nc1cc([As](=O)(O)O)ccc1O	%	5.5

Identify measured inhibition associated with OC[C@@H](O)[C@@H](O[C@H]1O[C@H](CO)[C@@H](O)[C@H](O)[C@H]1O)[C@H](O)[C@@H](O)CO
3.8

Identify measured inhibition associated with COc1ccc2c(CC(=O)NCC3CCC(C(=O)O)CC3)cc(=O)oc2c1 (stereo not drawn)
3.6

Identify measured inhibition associated with c1ccc(CNc2ncnc3nc[nH]c23)cc1
-4.8

Identify measured inhibition associated with COC(=O)CSc1nc2ccc(N)cc2s1
1.5

Identify measured inhibition associated with CCOC(=O)COc1ccc2c(=O)c(-c3ccccc3)coc2c1
1

Identify measured inhibition associated with O=C(NCCN1CCCCC1)c1c(O)c2ccccc2[nH]c1=O
-3.9

----------
assay-text: RPL19A-GFP modulators, yeast TOR pathway, confirmation, cell-based, S. cerevisiae, flow cytometry, cherry picks, mother/daughter gates (AID 2270)
run-parameters: S. cerevisiae RPL19A-GFP strain, 3 h, measured here: daughter cell gate, at 10 µM, stronger effect = lower value, 100 = same GFP as DMSO wells
metric-name: GFP response vs DMSO (%)
Value expressed in %; do not type the unit.

Field: example entries. Status: answers known.
smiles-text	GFP response vs DMSO [%]
O=c1oc2ccccc2c(O)c1[C@H]1c2ccc(O)cc2Oc2c1c(=O)oc1ccccc21	96.1
CCN(CC)c1ccc(C=C2C(=O)NC(=S)NC2=O)cc1	90.2

Identify measured GFP response vs DMSO associated with Nc1ccc2ccc3cccc[n+]3c2c1
110

Identify measured GFP response vs DMSO associated with C[C@]12CCC(=O)C(O)=C1CC[C@@H]1[C@@H]2CC[C@]2(C)C(=O)CC[C@@H]12
97.5

Identify measured GFP response vs DMSO associated with O=C1NC(=O)N(c2ccccc2)C(=O)/C1=C\c1ccc([N+](=O)[O-])o1
99.8

----------
assay-text: inhibitors of CD8+ T cell-vesicle binding, pilot screen, LFA-1/ICAM-1 modulator project, MLPCN validation set, flow cytometry (AID 2523);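 note: mean PE anti-B7-1 fluorescence of CD8+ cells relative to row control; 100% = QL9-loaded vesicles with DMSO vehicle in the same plate row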
run-parameters: 2C mouse CD8+ T cells, at 7 µM, stronger effect = lower value
Active and inactive are the calls of the source.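 The calls were made as follows: active = response below a set limit, under 55% cells CD8-positive and vesicle-bound, and CD8 cells' 90th-percentile brightness under 279; inactive = the rest.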 Peptide text beside a SMILES is read from it.
Reported vesicle binding response values follow for various compounds

Field: example entries. Status: answers known.
compound	vesicle binding response
Cc1ccc(/C=C2/C(=O)NC(=O)N(C)C2=O)cc1	135% (inactive)
O=C1CCCC2=C1C(c1cccnc1)Nc1ccccc1N2 (configuration not stated)	211% (inactive)
CC(C)C[C@H](NC(=O)[C@@H]1CCCN1C(=O)[C@@H](N)Cc1ccc(O)cc1)C(=O)NCC(N)=O (H-YPLG-NH2)	186% (inactive)
c1ccc2c(c1)OCC(C1=NCCN1)O2 (configuration not stated)	163% (inactive)
Cc1ccc(-n2c(C)cc(/C=C3/C(=O)NC(=O)N(C)C3=O)c2C)cc1	164% (inactive)

Identify measured vesicle binding response associated with NCC(O)c1ccc(O)cc1 (configuration not stated)
150% (inactive)

Identify measured vesicle binding response associated with Cc1cccc(C)c1NC1=NCCCS1
180% (inactive)

Identify measured vesicle binding response associated with c1ccc2c(c1)Nc1ccccc1S2
121% (inactive)

----------
Test system: Botulinum neurotoxin type F light chain protease (Clostridium botulinum)
assay-text: Botulinum neurotoxin type F light chain protease inhibition, multiplex microsphere flow cytometry, validation set (AID 588459)
run-parameters: multiplex microsphere protease substrate cleavage assay, at 10 µM, stronger effect = higher value
metric-name: inhibition (%)
Value expressed in %; do not type the unit.

compound	inhibition (%)
CCC(COC(=O)c1cc(OC)c(OC)c(OC)c1)(c1ccccc1)N(C)C (stereo unspecified)	-3.5

Identify measured inhibition associated with CC(=O)OCC(=O)[C@@]1(O)CC[C@H]2[C@@H]3CCC4=CC(=O)CC[C@]4(C)[C@H]3[C@@H](O)C[C@@]21C
-3.3

Identify measured inhibition associated with Cc1cc(OC(=O)CNC(=O)OC(C)(C)C)c2c(C)cc(=O)oc2c1
-0.2

Identify measured inhibition associated with COc1ccc(CNC(=O)C2CCCN2C)cc1OC (stereo unspecified)
0.4

----------
experimental-system: Beta-adrenergic receptor kinase 1 (Homo sapiens) (UniProt P25098)
assay-text: GRK2 binders displacing RNA aptamer, biochemical, validation, human GRK2, bead flow cytometry (AID 488806)
run-parameters: bead-bound GRK2, FAM-aptamer displacement, at 10 µM, stronger effect = higher value
metric-name: aptamer binding inhibition (%)
Value expressed in %; do not type the unit.

molecule	aptamer binding inhibition (%)
c1ccc2c(c1)[nH]c1cnccc12	0
CC12CN3CC(C)(CN(C1)C3c1cccs1)C2=O (centres undefined)	4
C=C1[C@@H](C)[C@H]2[C@H](Cc3ccccc3)NC(=O)[C@]23OC(=O)/C=C/[C@H](O)CCC[C@@H](C)C/C=C/[C@H]3[C@@H]1O	4

Alright, here's another molecule for you.
Identify measured aptamer binding inhibition associated with CN1[C@@H]2CC[C@H]1CC(OC(=O)C1C=Nc3ccccc31)C2 (some centres undefined)
0

----------
Reported GFP response vs DMSO values follow for various compounds
assay-text: modulators of LAP4-GFP expression in yeast, primary screen, S. cerevisiae, multiplex flow cytometry (AID 1873)
run-parameters: 3 h, at 10 µM, stronger effect = higher value
Results filed as inconclusive are left out.
Value expressed in %; do not type the unit.

compound	GFP response vs DMSO / %
Cc1ccsc1C(=O)C1CCCN(Cc2cc3ccccc3o2)C1 (stereo not given)	85.5

Identify measured GFP response vs DMSO associated with C=C1[C@@H](C)[C@H]2[C@H](Cc3ccccc3)NC(=O)[C@]23OC(=O)/C=C/[C@H](O)CCC[C@@H](C)C/C=C/[C@H]3[C@@H]1O
114

Identify measured GFP response vs DMSO associated with CC(C)[C@H]1C(=O)N2CCC[C@H]2[C@]2(O)O[C@](NC(=O)[C@@H]3C=C4c5cccc6[nH]cc(c56)C[C@H]4N(C)C3)(C(C)C)C(=O)N12
123

Identify measured GFP response vs DMSO associated with CN1C2CCC1CC(OC(=O)CCN1CCCC1)C2 (stereo not given)
115

Identify measured GFP response vs DMSO associated with CC(C)C(=O)Nc1ccc(S(=O)(=O)N2CC3CC(C2)c2cccc(=O)n2C3)cc1 (stereo not given)
86.3

----------
experimental-system: Lethal factor (Bacillus anthracis) (UniProt P15917)
assay-text: Lethal factor protease inhibitors, Bacillus anthracis, multiplex microsphere cleavage assay, validation set (AID 588461)
run-parameters: flow cytometry, at 10 µM, stronger effect = higher value
Reported inhibition values follow for various compounds
Value expressed in %; do not type the unit.

compound	quantitative-result
O=C1CCCCCN1Cc1ccccc1	-2.7
c1ccc2c3c(c(CN4CCCCC4)cc2c1)COC3	0.6
CCNCCC(CCC(C)C)c1ccc2c(c1)OCO2 (configuration not stated)	-0.1
CC1CCN(C(=O)Oc2ccccc2)CC1	3.8
Nc1nc2c(ncn2COCCO)c(=O)[nH]1	0.4

Identify measured inhibition associated with COc1cc(/C=C/C(=O)N2CCCC2)cc(OC)c1OC
4.4

Identify measured inhibition associated with CCOc1ccc(C(NC(C)=O)c2ccc(OC)c(OC)c2)cc1 (configuration not stated)
5.8

Identify measured inhibition associated with O=C(c1cccc2ccccc12)C1CCCN(C(=O)CCN2CCCO2)C1 (configuration not stated)
2.5

Identify measured inhibition associated with Cc1cccc(C2=N/C(=C\c3cccnc3)C(=O)O2)c1
3.7

Identify measured inhibition associated with Cc1ccccc1C(=O)Oc1ccc(Sc2ccc(O)cc2)cc1
-3.8

Identify measured inhibition associated with C[C@]12CCC(=O)C=C1CCC1C2CC[C@@]2(C)C1CC[C@@]2(O)CC#N (some centres not stated)
-2.6

Identify measured inhibition associated with OCCN(Cc1nc(-c2ccc3c(c2)OCO3)no1)Cc1cccs1
2

Numbers sourced from PubChem BioAssay.
